assay: yeast display, Sf9 membrane polyspecificity reagent, FACS + sequencing; frameworks hold sequencing errors
endpoint: polyreactivity (PSR sort gate)

Record excerpt, results attached:
Consider the sequence shown here: QVQLVESGGGLVQAGGSLRLSCAASGSIFYIYAMGWYRKAPGKERELVASIDSGDSTNYADSVKGRFTISRDNAKNTVYLQMNSLKPEDTAVYYCNADTYSEITYYLYIGMDYWGQGTQVTVSS What is its recorded polyreactivity (PSR sort gate)?
low polyreactivity

Consider the sequence shown here: QVQLVESGGGLVQAGGSLRLSCAASGSTFVYYAMGWYRQAPGKERELVAAISTSAGSTYYADSVKGRFTISRDNAKNTVYLQMNSLKPEDTAVYYCAASRKRRRYGSISGGYWGQGTQVTVSS What is its recorded polyreactivity (PSR sort gate)?
high polyreactivity

Consider the sequence shown here: QVQLVESGGGLVQAGGSLRLSCAASGFIFSRNAMGWYRQAPGKERELVASITRRGGSKYYADSVKGRFTISRDYAKNTVYLQMNSLKPEDTAVYYCAADGYVRPPEMDYWGQGTQVTVSS What is its recorded polyreactivity (PSR sort gate)?
high polyreactivity

Consider the sequence shown here: QVQLVESGGGLVHAGGSLRLSCAPSAFTFAYYAMGWYRQAPGKEREFVAAITKGGGSTNYADSVKGRFTISRDNAKNTVYLQMYSLKPEDTAVYYSNADYFVWYIGRVFSRYGYWGQGTQVTVSS What is its recorded polyreactivity (PSR sort gate)?
low polyreactivity

Others:
Consider the sequence shown here: QVQLVESGGGLVQAGGSLRLSCAASGSICDRNAMGWYRQAPGKERELVANITWSGVSTYYADSVKGRFTMSRDNAKNTVYLQMNSLKPDDTAVYYCNADYSYRHWYDPGQYGQAMGYWGQGTQVTVSS What is its recorded polyreactivity (PSR sort gate)?
low polyreactivity

Consider the sequence shown here: QVQLVESGGGLVQAGGSLRLSCAASGSIFITYAMGWYRQAPGKERELVAAIRDSGDRTYYADSVKGRFTISRDYAKNTVYLQMNSLKPEDTAVYYCNARWQEPLKYDYWGQGTQVTVSS What is its recorded polyreactivity (PSR sort gate)?
low polyreactivity

Consider the sequence shown here: QVQLVESGGGLVQAGGSLRLSCAASGRTFGGNTMGWYREAPGKERELVAAISRRGGSTYYADSVKGRFTISRDNAKNTVYLQMNSLKPEDTAVYYCNKDGPSYSSYDYWGQGTQVTVSS What is its recorded polyreactivity (PSR sort gate)?
low polyreactivity

Consider the sequence shown here: QVQLVESGGGLVQAGGSLRLSCAASGSIFEGYVMGWYRQAPGKERELVATISFSGGSTYYADSVKGRFTISRDNAKNTVYLQMNSLKPEDTAVYYCNALVYHTKGDYGYWGQGTQVTVSS What is its recorded polyreactivity (PSR sort gate)?
low polyreactivity

Consider the sequence shown here: QVQLVESGGGVVQAGGSLRLSCAASGRTFPGNAMGWYRQAPGKERELVASITWSTGSTYYADSVKGRFTISRDNAKNTVYLQMNSLKPEDTAVYYCAADQSVRSYQYSVHRGYWGQGTQVTVSS What is its recorded polyreactivity (PSR sort gate)?
high polyreactivity

Consider the sequence shown here: QVQLVESGGGLVQAGGSLRLICAASGSTFHAYAMGWYRQAPGKERDLVAAITWSGDSTYADSVKGRFTISRDKAKNTFFLQMNSLKPEETAVYDCACRGFLGHWPRPSYDYWGQGTQVTVSS What is its recorded polyreactivity (PSR sort gate)?
low polyreactivity

Consider the sequence shown here: QVQLVESGGGLVQAGGSLRLSCAASGLIFSHNVMGWYRQAPGKERELVAAISKGGGSTYYADSVKGRFTISRDNAKNTVYLQLNSLIPEDTAVYYCAAPYWSKYRQTEYDYWGQGTQVTVSS What is its recorded polyreactivity (PSR sort gate)?
high polyreactivity
